All values here come from the RNAGym collection of RNA variant scans (doi:10.1126/science.aae0568).

B1: tRNA (parent)
chain: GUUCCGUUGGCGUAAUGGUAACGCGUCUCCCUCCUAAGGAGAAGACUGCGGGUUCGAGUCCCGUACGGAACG

Variants of: B1
Experiment: yeast fitness relative to wild type (ratio to wild type); higher = fitter; tRNA-Arg(CCU), competitive growth, 37 C, YPD
Variants at the floor of the assay were thinned out.
The following variants are listed with their measured yeast fitness values.
Lab note: record the figure alone, no unit after it.

// below: answered variants
mutant-code: C5G C22A U26C C33G U64A G67C
measure: yeast fitness
observed-measurement: 0.544

mutant-code: U59A G68U
measure: yeast fitness
observed-measurement: 0.769

mutant-code: C31U U53C
measure: yeast fitness
observed-measurement: 0.633

mutant-code: G6A U16G A21G A40G A42U
measure: yeast fitness
observed-measurement: 0.535

Now take the following variant into account.
Read off the recorded yeast fitness for G23C U28A
0.559
